# Species: Homo sapiens
# protocol_summary: Liver toxicity in human assessed as induction of drug-induced liver injury by measuring verified drug-induced liver injury concern status
outcome_measure: DILI_Concern

| compound | DILI_Concern |
| --- | --- |
| NS(=O)(=O)c1cc2c(cc1C(F)(F)F)NC(Cc1ccccc1)NS2(=O)=O (stereo unspecified) [BENDROFLUMETHIAZIDE] | Less-Dili-Concern |
| C[C@H](CS)C(=O)N1CCC[C@H]1C(=O)O | Less-Dili-Concern |
| CCCCc1nc(Cl)c(CO)n1Cc1ccc(-c2ccccc2-c2nn[nH]n2)cc1 | Less-Dili-Concern |
| CC(C)(N)CO.Cn1c(=O)c2[nH]c(Br)nc2n(C)c1=O | No-Dili-Concern |
| COc1c(C)c2c(c(O)c1C/C=C(\C)CCC(=O)OCCN1CCOCC1)C(=O)OC2 [MYCOPHENOLATE MOFETIL] | Less-Dili-Concern |
| Nc1nc2c(ncn2COCCO)c(=O)[nH]1 | Less-Dili-Concern |
| CCN(CC)CCOC(=O)C1(C2CCCCC2)CCCCC1 | No-Dili-Concern |
| CN(CCOc1ccc(NS(C)(=O)=O)cc1)CCc1ccc(NS(C)(=O)=O)cc1 [DOFETILIDE] | No-Dili-Concern |

Entry `Cc1onc(-c2ccccc2)c1-c1ccc(S(N)(=O)=O)cc1` , DILI_Concern reported as Less-Dili-Concern

Notebook: CCC(C)CCCCC(=O)N[C@@H](CCNCS(=O)(=O)O)C(=O)N[C@H](C(=O)N[C@@H](CCNCS(=O)(=O)O)C(=O)N[C@H]1CCNC(=O)[C@H]([C@@H](C)O)NC(=O)[C@H](CCNCS(=O)(=O)O)NC(=O)[C@H](CCNCS(=O)(=O)O)NC(=O)[C@H](CC(C)C)NC(=O)[C@@H](CC(C)C)NC(=O)[C@H](CCNCS(=O)(=O)O)NC1=O)[C@@H](C)O (stereo partly specified) , DILI_Concern read as No-Dili-Concern

Lab note: `CO/N=C(\C(=O)N[C@@H]1C(=O)N2C(C(=O)[O-])=C(C[N+]3(C)CCCC3)CS[C@H]12)c1csc(N)n1` gave DILI_Concern of Less-Dili-Concern

Noted for `CCOC(=O)[C@H](CCc1ccccc1)N[C@@H](C)C(=O)N1Cc2ccccc2C[C@H]1C(=O)O` : its DILI_Concern reads Less-Dili-Concern

get_value(item= O=C(O)COCCN1CCN(C(c2ccccc2)c2ccc(Cl)cc2)CC1 (stereo unspecified) , readout=DILI_Concern) returns Less-Dili-Concern

The compound identified as `O=C1[C@H](CC[C@H](O)c2ccc(F)cc2)[C@@H](c2ccc(O)cc2)N1c1ccc(F)cc1` registered its DILI_Concern at Less-Dili-Concern

Kindly note the recorded DILI_Concern for Cc1ccc(S(=O)(=O)NC(=O)NN2CCCCCC2)cc1 [TOLAZAMIDE] , which is Less-Dili-Concern

###

# Species on record: Homo sapiens
# protocol_summary: Liver toxicity in human assessed as induction of drug-induced liver injury by measuring verified drug-induced liver injury concern status
outcome_measure: DILI_Concern

Below: 4 compounds and their reported DILI_Concern.
| compound | recorded_measurement |
| --- | --- |
| CC(C)[C@H](N)C(=O)OCC(CO)OCn1cnc2c(=O)nc(N)[nH]c21 (stereo partly specified) | Ambiguous-Dili-Concern |
| Cc1cn[nH]c1 [FOMEPIZOLE] | Ambiguous-Dili-Concern |
| NC1=NC(=O)C(c2ccccc2)O1 (stereo unspecified) | Most-Dili-Concern |
| CN(C)CCCN1c2ccccc2CCc2ccc(Cl)cc21 | Most-Dili-Concern |

Entry `O=C1O[C@H]([C@@H](O)CO)C(O)=C1O` , DILI_Concern reported as No-Dili-Concern

According to the records, this compound NCC(CC(=O)O)c1ccc(Cl)cc1 (stereo unspecified) displays DILI_Concern of Less-Dili-Concern

Documented DILI_Concern of `CN(C)C(=N)N=C(N)N` : Less-Dili-Concern

Field DILI_Concern (entry C[N+]1(C)CCC(OC(=O)C(O)(c2ccccc2)C2CCCC2)C1 (stereo unspecified) ) reads No-Dili-Concern

Please fill in: DILI_Concern reported for CN1c2c(nc(N)[nH]c2=O)NC[C@@H]1CNc1ccc(C(=O)N[C@@H](CCC(=O)[O-])C(=O)[O-])cc1.[Ca+2] [LEVOMEFOLATE CALCIUM] = No-Dili-Concern

Record summary for `Cc1nc(Nc2ncc(C(=O)Nc3c(C)cccc3Cl)s2)cc(N2CCN(CCO)CC2)n1.O` : reported DILI_Concern = Less-Dili-Concern

For record `C[C@H]1[C@H](c2ccccc2)OCCN1C` the listed DILI_Concern is No-Dili-Concern

Consider `Nc1ccn(C[C@@H](CO)OCP(=O)(O)O)c(=O)n1.O.O` . Its measured DILI_Concern is Ambiguous-Dili-Concern

Please fill in: DILI_Concern reported for `Cn1c(CCCC(=O)O)nc2cc(N(CCCl)CCCl)ccc21` = No-Dili-Concern

Form: compound = CNC1(c2ccccc2Cl)CCCCC1=O (stereo unspecified) ; DILI_Concern = Less-Dili-Concern

DILI_Concern in this record for `O=C(CCCN1CCC(O)(c2ccc(Cl)cc2)CC1)c1ccc(F)cc1` : Less-Dili-Concern

Lab note: measured DILI_Concern of `CC(=O)O[C@H]1C[C@@H]2CC[C@@H]3[C@H](CC[C@@]4(C)[C@H]3C[C@H]([N+]3(C)CCCCC3)[C@@H]4OC(C)=O)[C@@]2(C)C[C@@H]1N1CCCCC1` was No-Dili-Concern

Please fill in: DILI_Concern reported for `NC(N)=Nc1nc(CSCCN/C=N/S(=O)(=O)c2ccc(Br)cc2)cs1` = Most-Dili-Concern
